- assayed-system: Phosphatidylinositol 4,5-bisphosphate 3-kinase catalytic subunit delta isoform (Homo sapiens)
- Sequence (O00329 whole entry, canonical isoform): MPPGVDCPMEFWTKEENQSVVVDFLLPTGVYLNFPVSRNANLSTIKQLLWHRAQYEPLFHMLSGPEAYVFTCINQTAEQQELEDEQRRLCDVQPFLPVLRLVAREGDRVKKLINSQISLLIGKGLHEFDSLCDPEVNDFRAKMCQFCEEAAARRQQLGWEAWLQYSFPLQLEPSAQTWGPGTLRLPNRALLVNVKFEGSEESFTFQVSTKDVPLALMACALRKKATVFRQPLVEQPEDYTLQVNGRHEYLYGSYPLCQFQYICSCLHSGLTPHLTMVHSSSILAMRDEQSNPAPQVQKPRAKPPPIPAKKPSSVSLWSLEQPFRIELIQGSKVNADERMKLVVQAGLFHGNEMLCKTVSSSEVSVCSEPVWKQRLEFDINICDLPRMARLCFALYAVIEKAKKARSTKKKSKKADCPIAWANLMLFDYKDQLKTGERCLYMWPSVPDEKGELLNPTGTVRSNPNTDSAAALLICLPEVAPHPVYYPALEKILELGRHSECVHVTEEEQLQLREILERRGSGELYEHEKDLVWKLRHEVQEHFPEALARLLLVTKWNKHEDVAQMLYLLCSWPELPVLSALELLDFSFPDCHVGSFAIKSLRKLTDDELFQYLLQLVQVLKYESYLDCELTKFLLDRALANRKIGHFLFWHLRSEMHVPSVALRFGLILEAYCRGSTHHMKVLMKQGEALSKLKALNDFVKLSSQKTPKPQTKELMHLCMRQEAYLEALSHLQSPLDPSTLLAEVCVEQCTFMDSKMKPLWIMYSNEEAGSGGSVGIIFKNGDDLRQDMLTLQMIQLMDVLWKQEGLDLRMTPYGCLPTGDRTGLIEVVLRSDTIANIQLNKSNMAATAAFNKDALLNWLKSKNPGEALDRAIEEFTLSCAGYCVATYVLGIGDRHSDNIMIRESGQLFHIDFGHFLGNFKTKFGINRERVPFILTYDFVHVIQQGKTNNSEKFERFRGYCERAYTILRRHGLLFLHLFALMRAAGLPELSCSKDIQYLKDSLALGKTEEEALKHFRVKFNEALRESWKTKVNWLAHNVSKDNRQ
- protocol-notes: Covalent inhibition of PI3Kdelta (unknown origin) using PIP2:3PS as substrate assessed as inhibition constant incubated upto 180 mins in presence of ATP by ADP-Glo reagent based assay
property-label: Ki

Given item COc1ncc(-c2ccc3ncnc(N[C@H]4CCN(C(=O)C5CCOCC5)C4)c3n2)cc1C(=O)Oc1ccccc1 , the value recorded as its Ki is 1.85 nM

* * *

Quick reference for GI50 among some molecules
- protocol-notes: Growth inhibition of PI3Kdelta-overexpressing human SU-DHL-6 cells incubated for 72 hrs by MTT assay
- Format: functional
Put your answer as a value accompanied by its unit after it.

O=Cc1cc(-c2ccc3ncnc(N[C@H]4CCN(C(=O)C5CCOCC5)C4)c3n2)ccc1O; 710 nM
COc1ncc(-c2ccc3ncnc(N[C@H]4CCN(C(=O)C5CCOCC5)C4)c3n2)cc1C(=O)Oc1cccnc1; 122 nM
COc1ncc(-c2ccc3ncnc(N[C@H]4CCN(C(=O)C5CCOCC5)C4)c3n2)cc1C(=O)Oc1ccc(F)cc1; 4 nM

Now examine the next entry.
Given item COc1ncc(-c2ccc3ncnc(N[C@H]4CCN(C(=O)C5CCOCC5)C4)c3n2)cc1C(=O)Oc1ccccc1 , the value recorded as its GI50 is 2 nM

* * *

- assayed-system: Phosphatidylinositol 4,5-bisphosphate 3-kinase catalytic subunit beta isoform (Homo sapiens)
- Sequence (P42338 whole entry, canonical isoform): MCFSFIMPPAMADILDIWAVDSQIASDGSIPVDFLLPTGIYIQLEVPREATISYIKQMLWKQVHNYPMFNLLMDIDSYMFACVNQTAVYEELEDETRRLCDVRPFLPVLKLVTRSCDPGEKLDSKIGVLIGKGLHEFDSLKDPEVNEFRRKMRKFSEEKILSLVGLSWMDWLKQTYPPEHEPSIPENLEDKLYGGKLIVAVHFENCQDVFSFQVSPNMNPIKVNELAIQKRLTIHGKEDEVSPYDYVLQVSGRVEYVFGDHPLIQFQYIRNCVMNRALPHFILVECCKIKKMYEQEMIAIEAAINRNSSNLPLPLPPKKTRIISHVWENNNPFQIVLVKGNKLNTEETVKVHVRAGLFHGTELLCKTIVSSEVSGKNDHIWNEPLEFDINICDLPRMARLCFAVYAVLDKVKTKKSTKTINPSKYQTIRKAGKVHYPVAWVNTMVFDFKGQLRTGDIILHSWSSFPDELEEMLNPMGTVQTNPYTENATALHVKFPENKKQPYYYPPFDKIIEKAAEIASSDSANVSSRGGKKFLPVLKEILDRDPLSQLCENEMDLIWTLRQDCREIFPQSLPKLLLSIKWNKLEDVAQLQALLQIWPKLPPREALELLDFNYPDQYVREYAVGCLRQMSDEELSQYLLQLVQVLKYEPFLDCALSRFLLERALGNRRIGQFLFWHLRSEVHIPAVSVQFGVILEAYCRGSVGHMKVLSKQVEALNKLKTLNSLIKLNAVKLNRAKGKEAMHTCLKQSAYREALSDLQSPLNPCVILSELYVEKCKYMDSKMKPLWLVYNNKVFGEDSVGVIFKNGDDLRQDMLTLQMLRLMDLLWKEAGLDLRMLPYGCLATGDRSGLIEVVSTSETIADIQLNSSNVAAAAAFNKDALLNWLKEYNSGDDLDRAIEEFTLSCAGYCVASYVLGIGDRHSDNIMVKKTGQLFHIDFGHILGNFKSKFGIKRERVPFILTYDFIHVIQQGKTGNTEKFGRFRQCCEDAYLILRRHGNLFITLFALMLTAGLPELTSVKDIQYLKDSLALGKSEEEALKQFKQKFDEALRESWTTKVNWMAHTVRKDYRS
- protocol-notes: Inhibition of recombinant PI3Kbeta (unknown origin) using PIP2:3PS as substrate preincubated for 20 mins followed by ATP addition and measured after 1 hrs by ADP-Glo reagent based assay
property-label: IC50 (nM)
Respond numerically; units are nM and should not be typed.

Here are 3 compounds together with their reported answers.
COc1ncc(-c2ccc3ncnc(N[C@H]4CCN(C(=O)C5CCOCC5)C4)c3c2)cc1C(=O)Oc1ccc(F)cc1; 30
COc1ncc(-c2ccc3ncnc(N[C@H]4CCN(C(=O)C5CCOCC5)C4)c3c2)cc1C(=O)Oc1ccccc1; 155
COc1ncc(-c2ccc3ncnc(N[C@H]4CCN(C(=O)C5CCOCC5)C4)c3n2)cc1C(=O)Oc1ccc(F)cc1; 241

Now examine the next entry.
Given item COc1ncc(-c2ccc3ncnc(N[C@H]4CCN(C(=O)C5CCOCC5)C4)c3n2)cc1C(=O)Oc1ccccc1 , the value recorded as its IC50 is 203

* * *

- protocol-notes: Chemical reactivity of the compound with N-Boc-Lysine assessed as half-life at 1 uM by HPLC analysis
- Format: physicochemical
- reported-conditions: incubation with N-Boc-Lysine
property-label: half-life at 1 µM

Here are 4 compounds together with their reported answers.
C=CC(=O)Nc1cc(-c2ccc3ncnc(N[C@H]4CCN(C(=O)C5CCOCC5)C4)c3n2)cnc1OC; > 1440 min
C=CC(=O)Nc1cc(-c2ccc3ncnc(N[C@H]4CCN(C(=O)C5CCOCC5)C4)c3c2)cnc1OC; > 1440 min
COc1ncc(-c2ccc3ncnc(N[C@H]4CCN(C(=O)C5CCOCC5)C4)c3n2)cc1C(=O)Oc1c(F)cc(F)cc1F; < 1 min
COc1ncc(-c2ccc3ncnc(N[C@H]4CCN(C(=O)C5CCOCC5)C4)c3n2)cc1C(=O)Oc1ccc([N+](=O)[O-])cc1; < 1 min

Given item COc1ncc(-c2ccc3ncnc(N[C@H]4CCN(C(=O)C5CCOCC5)C4)c3c2)cc1C(=O)Oc1ccc([N+](=O)[O-])cc1 , the value recorded as its half-life at 1 µM is < 1 min

Given item O=Cc1cc(-c2ccc3ncnc(N[C@H]4CCN(C(=O)C5CCOCC5)C4)c3c2)ccc1O , the value recorded as its half-life at 1 µM is < 1 min

Given item COC(=O)c1cc(-c2ccc3ncnc(N[C@H]4CCN(C(=O)C5CCOCC5)C4)c3c2)cnc1OC , the value recorded as its half-life at 1 µM is > 1440 min

Given item COc1ncc(-c2ccc3ncnc(N[C@H]4CCN(C(=O)C5CCOCC5)C4)c3c2)cc1C(=O)Oc1ccc(C#N)cc1 , the value recorded as its half-life at 1 µM is < 1 min

Given item COc1ncc(-c2ccc3ncnc(N[C@H]4CCN(C(=O)C5CCOCC5)C4)c3c2)cc1C(=O)Oc1c(F)cc(F)cc1F , the value recorded as its half-life at 1 µM is < 1 min

Values were extracted from ChEMBL document CHEMBL6127139.
